experimental-system: T1, human melanocortin receptor subtype 4 (hMC4-R) (human, UniProt P32245 1-332)
T1 construct: whole, on cells; membranes of CHO-K1 cells
T1 sequence (P32245 whole entry): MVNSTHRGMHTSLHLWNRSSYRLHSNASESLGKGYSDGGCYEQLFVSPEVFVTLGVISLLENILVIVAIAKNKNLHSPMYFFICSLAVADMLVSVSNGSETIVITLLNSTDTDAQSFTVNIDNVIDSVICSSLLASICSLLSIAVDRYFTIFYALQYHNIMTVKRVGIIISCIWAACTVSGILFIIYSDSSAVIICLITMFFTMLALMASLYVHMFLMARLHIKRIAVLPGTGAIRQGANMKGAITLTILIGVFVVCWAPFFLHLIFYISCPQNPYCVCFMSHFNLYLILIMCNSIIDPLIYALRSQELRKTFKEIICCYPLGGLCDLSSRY
assay-explanation: [125I]-NDP-α-MSH competition, membranes
Description: Cellular membranes used for the in vitro receptor binding assays were obtained from transgenic CHO-K1 cells stably expressing hMC-R receptor subtypes 1, 3, 4 or 5. […] Competitive inhibition of [¹²⁵I](Tyr²)-(Nle⁴-D-Phe⁷)α-MSH ([¹²⁵I]-NDP-α-MSH, Amersham Biosciences®) binding was carried out in polypropylene 96 well plates. […] Binding data were analyzed by computer-assisted non-linear regression analysis (XL fit; IDBS).
Bridge positions count the residues as written; N and C are the ends. Square brackets hold non-standard residues; d marks the D form. Ends that are not written are not given here. 1Nal = N[C@@H](Cc1cccc2ccccc12)C(=O)O; d2Nal = N[C@H](Cc1ccc2ccccc2c1)C(=O)O; Apc = not defined here; βAla = NCCC(=O)O
property-measured: pKi
Answers are plain numbers, as −log10 of the molar value.

>>> result("GCEH[dF]RWC-NH2 (disulfide 2-8; also: hydantoin ring from C(O) with Gly1-Cys2) [c[Hydantoin(C(O)-(Gly-Cys))-Glu-His-D-Phe-Arg-Trp-Cys]-NH2]")
8.05
>>> result("D[Apc][d2Nal]RWK-NH2 (lactam 1-6; reading uncertain; also: hydantoin ring: N-terminal N of Asp1 and backbone N of residue 2 bridged by one C(O), bridge at N via C(O), other end not in the chain, printed as c[Hydantoin(C(O)-(Asp-Apc))-D-2-Nal-Arg-Trp-Lys]-NH2) [c[Hydantoin(C(O)-(Asp-Apc))-D-2-Nal-Arg-Trp-Lys]-NH2]")
6.58
>>> result("GRCEH[dF]RWC-NH2 (disulfide 3-9; also: hydantoin ring from C(O) with Gly1-Arg2) [Hydantoin(C(O)-(Gly-Arg))-c(Cys-Glu-His-D-Phe-Arg-Trp-Cys)-NH2]")
8.61
>>> result("Ac-CEH[d2Nal]R[1Nal]ACPPKD[βAla]RRRRRQRRR-NH2 (disulfide 1-8) [Ac-c(Cys-Glu-His-D-2-Nal-Arg-1-Nal-Ala-Cys)-Pro-Pro-Lys-Asp-β-[…]NH2]")
9.62

Kindly consider the entry below.
Exercise: // lookup pKi for CEHXRXACPPKDXYGRKKRRQRRR (N-terminal Ac; D-2-Nal at 4; 1-Nal at 6; β-Ala at 13; disulfide Cys1-Cys8; C-terminal NH2)
Solution: 9.23

// data source = patent US20120135923A1
